Values were extracted from ChEMBL document CHEMBL1255175.

# key: entry, value: zone of inhibition at 30 µg/mL
Test system: Fusarium verticillioides
test: Antifungal activity against Fusarium moniliforme MTCC 1848 at 30 ug/ml
Format: functional
measurement context: read-out: DIZ
value type: zone of inhibition at 30 µg/mL (mm)

COc1ccc(N2C(=S)N(c3cc(C)on3)C(C)=C3C(=O)N(c4cc(C)on4)c4ccccc4C32)cc1 (stereo not drawn)	35
CC1=C2C(=O)N(c3cc(C)on3)c3ccccc3C2N(Cc2ccccc2)C(=S)N1c1cc(C)on1 (stereo not drawn)	32
CC1=C2C(=O)N(c3cc(C)on3)c3ccccc3C2N(c2ccccc2)C(=S)N1c1cc(C)on1 (stereo not drawn)	30
COc1cccc(N2C(=S)N(c3cc(C)on3)C(C)=C3C(=O)N(c4cc(C)on4)c4ccccc4C32)c1 (stereo not drawn)	35
CC1=C2C(=O)N(c3cc(C)on3)c3ccccc3C2N(c2ccc(Br)cc2)C(=S)N1c1cc(C)on1 (stereo not drawn)	25
CC1=C2C(=O)N(c3cc(C)on3)c3ccccc3C2N(c2ccc(C)cc2)C(=S)N1c1cc(C)on1 (stereo not drawn)	45
CC1=C2C(=O)N(c3cc(C)on3)c3ccccc3C2N(c2ccccc2Cl)C(=S)N1c1cc(C)on1 (stereo not drawn)	30
CC1=C2C(=O)N(c3cc(C)on3)c3ccccc3C2N(c2ccc(Cl)cc2)C(=S)N1c1cc(C)on1 (stereo not drawn)	30

====

# key: entry, value: zone of inhibition at 100 µg/mL
Tested on: Curvularia lunata
test: Antifungal activity against Curvularia lunata MTCC 2030 at 100 ug/ml
Assay type: functional
measurement context: read-out: DIZ
value type: zone of inhibition at 100 µg/mL

Clc1ccccc1C(c1ccccc1)(c1ccccc1)n1ccnc1	35 mm
CC1=C2C(=O)N(c3cc(C)on3)c3ccccc3C2N(c2ccc(Br)cc2)C(=S)N1c1cc(C)on1 (centres undefined)	45 mm
COc1ccc(N2C(=S)N(c3cc(C)on3)C(C)=C3C(=O)N(c4cc(C)on4)c4ccccc4C32)cc1 (centres undefined)	60 mm
CC1=C2C(=O)N(c3cc(C)on3)c3ccccc3C2N(Cc2ccccc2)C(=S)N1c1cc(C)on1 (centres undefined)	55 mm
CC1=C2C(=O)N(c3cc(C)on3)c3ccccc3C2N(c2ccccc2)C(=S)N1c1cc(C)on1 (centres undefined)	40 mm
CC1=C2C(=O)N(c3cc(C)on3)c3ccccc3C2N(c2ccccc2Cl)C(=S)N1c1cc(C)on1 (centres undefined)	55 mm
CC1=C2C(=O)N(c3cc(C)on3)c3ccccc3C2N(c2ccc(Cl)cc2)C(=S)N1c1cc(C)on1 (centres undefined)	50 mm
COc1cccc(N2C(=S)N(c3cc(C)on3)C(C)=C3C(=O)N(c4cc(C)on4)c4ccccc4C32)c1 (centres undefined)	55 mm
CC1=C2C(=O)N(c3cc(C)on3)c3ccccc3C2N(c2ccc(C)cc2)C(=S)N1c1cc(C)on1 (centres undefined)	65 mm

====

test: Antifungal activity against Chrysosporium tropicum MTCC 2821 at 100 ug/ml
Format: functional
# key: entry, value: inhibition zone (IZ)
value type: inhibition zone (IZ)

CC1=C2C(=O)N(c3cc(C)on3)c3ccccc3C2N(c2ccccc2)C(=S)N1c1cc(C)on1 (stereo unspecified)	45 mm
CC1=C2C(=O)N(c3cc(C)on3)c3ccccc3C2N(c2ccc(Cl)cc2)C(=S)N1c1cc(C)on1 (stereo unspecified)	45 mm
CC1=C2C(=O)N(c3cc(C)on3)c3ccccc3C2N(c2ccc(Br)cc2)C(=S)N1c1cc(C)on1 (stereo unspecified)	45 mm
CC1=C2C(=O)N(c3cc(C)on3)c3ccccc3C2N(c2ccccc2Cl)C(=S)N1c1cc(C)on1 (stereo unspecified)	40 mm
COc1cccc(N2C(=S)N(c3cc(C)on3)C(C)=C3C(=O)N(c4cc(C)on4)c4ccccc4C32)c1 (stereo unspecified)	40 mm
Clc1ccccc1C(c1ccccc1)(c1ccccc1)n1ccnc1	30 mm

====

# key: entry, value: zone of inhibition at 30 µg/mL
System: Curvularia lunata
test: Antifungal activity against Curvularia lunata MTCC 2030 at 30 ug/ml
Format: functional
measurement context: read-out: DIZ
value type: zone of inhibition at 30 µg/mL (mm)

CC1=C2C(=O)N(c3cc(C)on3)c3ccccc3C2N(c2ccc(Br)cc2)C(=S)N1c1cc(C)on1 (stereo not drawn)	35
CC1=C2C(=O)N(c3cc(C)on3)c3ccccc3C2N(c2ccc(C)cc2)C(=S)N1c1cc(C)on1 (stereo not drawn)	45
COc1cccc(N2C(=S)N(c3cc(C)on3)C(C)=C3C(=O)N(c4cc(C)on4)c4ccccc4C32)c1 (stereo not drawn)	35
CC1=C2C(=O)N(c3cc(C)on3)c3ccccc3C2N(c2ccccc2Cl)C(=S)N1c1cc(C)on1 (stereo not drawn)	40
CC1=C2C(=O)N(c3cc(C)on3)c3ccccc3C2N(c2ccc(Cl)cc2)C(=S)N1c1cc(C)on1 (stereo not drawn)	35
CC1=C2C(=O)N(c3cc(C)on3)c3ccccc3C2N(c2ccccc2)C(=S)N1c1cc(C)on1 (stereo not drawn)	35
CC1=C2C(=O)N(c3cc(C)on3)c3ccccc3C2N(Cc2ccccc2)C(=S)N1c1cc(C)on1 (stereo not drawn)	30
COc1ccc(N2C(=S)N(c3cc(C)on3)C(C)=C3C(=O)N(c4cc(C)on4)c4ccccc4C32)cc1 (stereo not drawn)	40

====

System: Rhizopus arrhizus
test: Antifungal activity against Rhizopus oryzae MTCC 262 at 100 ug/ml
Format: functional
measurement context: read-out: DIZ
Threshold rule: zone of inhibition at 100 µg/mL greater than or equal to 60 mm is Condition met; below that, Condition not met.

COc1ccc(N2C(=S)N(c3cc(C)on3)C(C)=C3C(=O)N(c4cc(C)on4)c4ccccc4C32)cc1 (centres undefined)	Condition met
Clc1ccccc1C(c1ccccc1)(c1ccccc1)n1ccnc1	Condition not met
CC1=C2C(=O)N(c3cc(C)on3)c3ccccc3C2N(c2ccc(C)cc2)C(=S)N1c1cc(C)on1 (centres undefined)	Condition met
COc1cccc(N2C(=S)N(c3cc(C)on3)C(C)=C3C(=O)N(c4cc(C)on4)c4ccccc4C32)c1 (centres undefined)	Condition met
CC1=C2C(=O)N(c3cc(C)on3)c3ccccc3C2N(c2ccccc2)C(=S)N1c1cc(C)on1 (centres undefined)	Condition not met
CC1=C2C(=O)N(c3cc(C)on3)c3ccccc3C2N(c2ccc(Br)cc2)C(=S)N1c1cc(C)on1 (centres undefined)	Condition not met
CC1=C2C(=O)N(c3cc(C)on3)c3ccccc3C2N(c2ccccc2Cl)C(=S)N1c1cc(C)on1 (centres undefined)	Condition not met
CC1=C2C(=O)N(c3cc(C)on3)c3ccccc3C2N(c2ccc(Cl)cc2)C(=S)N1c1cc(C)on1 (centres undefined)	Condition not met
